# credit: ChEMBL document CHEMBL1130997

// Platelet-activating factor receptor (Homo sapiens) IC50 records
QUANTITY_MEASURED: IC50 (nM)

[P] CC1C(=O)O[C@H]2[C@H](O)C34[C@H]5C[C@@H](C(C)(C)C)[C@]36[C@@H](OC(=O)[C@@H]6OCOCc3ccccc3)O[C@@]4(C(=O)O5)[C@@]12O (some centres not stated)
[Q] C[C@@H]1C(=O)O[C@H]2[C@H](O)[C@@]34[C@H]5C[C@@H](C(C)(C)C)[C@]36[C@@H](OC(=O)[C@@H]6O)O[C@@]4(C(=O)O5)[C@@]12O [GINKOLIDE B]
Compare P and Q by numeric IC50 and name the larger one. // output: label of the selected item
Q
(Q: 128 nM, P: 40.4 nM)
